I'd appreciate it if you could supply IC50 values for the items below.
SYSTEM UNDER TEST: UniProt:Q13315
Sequence (Q13315 whole entry): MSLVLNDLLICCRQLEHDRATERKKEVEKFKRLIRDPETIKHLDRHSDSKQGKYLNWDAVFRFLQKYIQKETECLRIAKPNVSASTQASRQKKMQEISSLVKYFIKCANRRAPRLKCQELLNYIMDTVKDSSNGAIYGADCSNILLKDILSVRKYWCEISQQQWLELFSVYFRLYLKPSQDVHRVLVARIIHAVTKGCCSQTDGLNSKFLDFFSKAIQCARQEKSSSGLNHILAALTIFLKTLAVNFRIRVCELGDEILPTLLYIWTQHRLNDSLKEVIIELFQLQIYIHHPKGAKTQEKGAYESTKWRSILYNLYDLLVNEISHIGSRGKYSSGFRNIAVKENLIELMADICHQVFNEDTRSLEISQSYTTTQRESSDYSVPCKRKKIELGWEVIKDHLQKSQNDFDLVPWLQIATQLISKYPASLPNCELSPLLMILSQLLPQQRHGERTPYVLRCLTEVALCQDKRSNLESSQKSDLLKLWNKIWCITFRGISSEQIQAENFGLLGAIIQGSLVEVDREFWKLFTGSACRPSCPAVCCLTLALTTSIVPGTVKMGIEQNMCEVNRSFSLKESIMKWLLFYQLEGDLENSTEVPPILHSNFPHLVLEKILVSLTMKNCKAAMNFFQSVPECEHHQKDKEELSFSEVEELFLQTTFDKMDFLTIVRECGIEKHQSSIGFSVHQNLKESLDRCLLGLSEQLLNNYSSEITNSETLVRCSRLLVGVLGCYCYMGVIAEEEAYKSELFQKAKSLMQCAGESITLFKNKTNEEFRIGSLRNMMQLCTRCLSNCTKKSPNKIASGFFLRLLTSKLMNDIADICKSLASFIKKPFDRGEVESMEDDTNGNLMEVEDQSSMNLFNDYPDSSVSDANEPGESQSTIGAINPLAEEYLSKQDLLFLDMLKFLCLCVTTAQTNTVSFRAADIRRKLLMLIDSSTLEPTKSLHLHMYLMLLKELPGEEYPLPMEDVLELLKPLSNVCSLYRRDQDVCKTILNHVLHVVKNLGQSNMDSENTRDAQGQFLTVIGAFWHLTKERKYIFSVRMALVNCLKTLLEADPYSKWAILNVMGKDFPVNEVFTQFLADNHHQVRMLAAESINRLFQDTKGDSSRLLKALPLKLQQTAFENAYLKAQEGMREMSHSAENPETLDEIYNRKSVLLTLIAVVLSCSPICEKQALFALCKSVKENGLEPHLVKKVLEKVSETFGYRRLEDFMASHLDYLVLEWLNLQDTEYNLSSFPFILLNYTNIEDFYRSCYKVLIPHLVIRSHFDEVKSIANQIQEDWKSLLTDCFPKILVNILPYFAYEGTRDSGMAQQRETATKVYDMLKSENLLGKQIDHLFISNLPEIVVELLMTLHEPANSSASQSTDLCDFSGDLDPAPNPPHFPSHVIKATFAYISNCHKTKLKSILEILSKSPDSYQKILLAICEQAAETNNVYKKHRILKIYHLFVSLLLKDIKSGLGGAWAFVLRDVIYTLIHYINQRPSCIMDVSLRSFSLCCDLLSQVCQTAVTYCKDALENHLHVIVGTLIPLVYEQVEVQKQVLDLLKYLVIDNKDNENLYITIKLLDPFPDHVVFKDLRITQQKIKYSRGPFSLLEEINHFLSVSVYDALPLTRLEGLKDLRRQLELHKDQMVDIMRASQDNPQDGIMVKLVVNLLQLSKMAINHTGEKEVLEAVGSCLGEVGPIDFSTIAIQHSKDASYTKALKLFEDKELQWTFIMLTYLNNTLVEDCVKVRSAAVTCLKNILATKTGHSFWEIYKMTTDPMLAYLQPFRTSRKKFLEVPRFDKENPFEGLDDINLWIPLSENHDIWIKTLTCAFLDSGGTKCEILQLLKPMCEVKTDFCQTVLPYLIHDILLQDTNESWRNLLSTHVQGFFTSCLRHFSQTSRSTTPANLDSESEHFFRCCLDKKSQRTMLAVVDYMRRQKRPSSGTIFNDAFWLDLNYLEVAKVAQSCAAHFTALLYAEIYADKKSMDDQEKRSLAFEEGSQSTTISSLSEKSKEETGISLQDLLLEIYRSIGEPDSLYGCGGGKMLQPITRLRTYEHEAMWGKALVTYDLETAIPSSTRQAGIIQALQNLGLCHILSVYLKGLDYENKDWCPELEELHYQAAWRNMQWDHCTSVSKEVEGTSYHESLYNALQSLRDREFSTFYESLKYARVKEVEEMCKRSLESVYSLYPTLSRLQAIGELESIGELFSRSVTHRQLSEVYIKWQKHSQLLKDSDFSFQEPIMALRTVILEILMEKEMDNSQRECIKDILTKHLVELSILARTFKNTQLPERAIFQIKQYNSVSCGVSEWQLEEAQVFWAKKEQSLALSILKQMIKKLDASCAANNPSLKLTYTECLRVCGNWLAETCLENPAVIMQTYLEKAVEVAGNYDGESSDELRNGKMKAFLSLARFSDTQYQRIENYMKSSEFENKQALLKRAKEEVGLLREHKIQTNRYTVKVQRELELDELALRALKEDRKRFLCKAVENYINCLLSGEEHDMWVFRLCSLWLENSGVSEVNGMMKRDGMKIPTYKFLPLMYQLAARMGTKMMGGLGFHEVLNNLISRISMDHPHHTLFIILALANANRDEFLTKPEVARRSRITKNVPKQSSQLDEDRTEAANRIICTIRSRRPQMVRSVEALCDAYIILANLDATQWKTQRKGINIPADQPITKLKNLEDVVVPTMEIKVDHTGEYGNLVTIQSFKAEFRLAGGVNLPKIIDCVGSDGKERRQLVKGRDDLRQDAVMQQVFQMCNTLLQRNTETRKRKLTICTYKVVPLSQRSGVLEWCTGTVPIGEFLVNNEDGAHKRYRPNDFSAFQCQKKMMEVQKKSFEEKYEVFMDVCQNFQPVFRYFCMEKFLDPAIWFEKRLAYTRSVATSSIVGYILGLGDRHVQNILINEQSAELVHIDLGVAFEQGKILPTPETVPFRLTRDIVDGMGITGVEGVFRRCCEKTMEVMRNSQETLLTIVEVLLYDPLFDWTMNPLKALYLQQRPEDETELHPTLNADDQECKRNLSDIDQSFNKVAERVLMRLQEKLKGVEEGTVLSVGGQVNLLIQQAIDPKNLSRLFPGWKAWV
TEST DESCRIPTION: Inhibition of ATM kinase using rabbit polyclonal antisera; No inhibition observed at 100 uM
Set-up: species or system Oryctolagus cuniculus
PROTOCOL CONDITIONS: target entry is the homologue from another species

[[record]]
molecule = "O=c1cc(N2CCOCC2)oc2c1ccc1ccccc12"
observed = "> 100 µM"

[[record]]
molecule = "CC1CN(c2cc(=O)c3ccc4ccccc4c3o2)CCO1 (stereo not drawn)"
observed = "> 100 µM"


Note: attention shifts to another entry.
Short answer for O=c1cc(N2CCOCC2)nc2c3ccccc3ccn12 : IC50 was > 100 µM
